Type: biochemical
Description: To analyze these engineered proteins for activity in higher temperatures, the in vitro enzyme assay in Example 1 was modified to specify pre-heating all of the assay components to the desired temperature for 5 minutes before combining the components and then maintaining the reaction at the desired temperature for the duration of the reaction. […] Using these parameters, the temperature at which the enzyme activity was half of maximum (T1/2) was calculated. […]
I'd appreciate it if you marked entries true when T1/2, temperature at which the enzyme activity was half of maximum is lower than 40 °C and false when it is not.

MON-HT55: engineered oxygenase protein, amino acid sequence SEQ ID NO:11 (protein) MHAALSPLSQRFERIAVQPLTGVLGAEITGVDLREPLDDSTWNEILDAFHTYQVIYFPGQAITNEQHIAFSRRFGPVDPVPLLKSIEGYPEVQMIRREANESGRVIGENWHTDSTFLDAPPAAVVMYAKEIPPYGGDTLFTSMYTAWETLSPTMQATIEGLNVVHSATRVFGSLYQAQNRRFSNTSVKVMDVDAGDRETVHPLVVTHPETGRKGLYVNQVYCQRIEGMSEKESEPLLSFLFAHATKPEFTCRVRWQEGDVLVWDNLCTQHYAVPDYAGKFRYLTRTTVGGVRPAR
true
MON-HT7: engineered oxygenase protein, amino acid sequence SEQ ID NO:34 (protein) MHAALTPLTNKYRFIDVQPLTGVLGAEITGVDLREPLDDSTWNEILDAFHTYQVIYFPGQAITNEQHIAFSRRFGPVDPVPLLKSIEGYPEVQMIRREANESGRVIGDDWHADSTFLDAPPAAVVMRAIEVPEYGGDTGFLSMYSAWETLSPTMQATIEGLNVVHSATKVFGSLYQATNWRFSNTSVKVMDVDAGDRETVHPLVVTHPVTGRRALYCNQVYCQKIQGMTDAESKSLLQFLYEHATKFDFTCRVRWKKDQVLVWDNLCTMHRSVPDYAGKFRYLTRTTVAGDKPSR
false
MON-HT2: engineered oxygenase protein, amino acid sequence SEQ ID NO:18 (protein) MHAALTPLTNKYRFIDVQPLTGVLGAEITGVDLREPLDDSTWNEILDAFHTYQVIYFPGQAITNEQHIAFSRRFGPVDPVPLLKSIEGYPEVQMIRREANESSRVIGDDWHSDSTFLDAPPAAVVMRAIEVPEYGGDTGFLSMYSAWETLSPTMQATIEGLNVVHSATKVFGSLYQATNWRFSNTSVKVMDVDAGDRETVHPLVVTHPVTGRRALYCNQVYCQKIQGMTDAESKSLLQFLYEHATKFDFTCRVRWKKDQVLVWDNLCTMHRAAPDYAGKFRYLTRTTVAGDKPSR
false

Now examine the next entry.
Prompt: Record MON-HT1: engineered oxygenase protein, amino acid sequence SEQ ID NO:14 (protein) MHAALTPLTNKYRFIDVQPLTGVLGAEITGVDLREPLDDSTWNEILDAFHTYQVIYFPGQAITNEQHIAFSRRFGPVDPVPILKSIEGYPEVQMIRREANESSRFIGDDWHTDSTFLDAPPAAVVMRAIEVPEYGGDTGFLSMYSAWETLSPTMQATIEGLNVVHSATKVFGSLYQATNWRFSNTSVKVMDVDAGDRETVHPLVVTHPVTGRRALYCNQVYCQKIQGMTDAESKSLLQFLYEHATKFDFTCRVRWKKDQVLVWDNLCTMHRAVPDYAGKFRYLTRTTVAGDKPSR : is its T1/2, temperature at which the enzyme activity was half of maximum strictly below 40 °C?
Response: false
